- test: yeast display, Sf9 membrane polyspecificity reagent, FACS + sequencing; frameworks hold sequencing errors
parameter: polyreactivity (PSR sort gate)

Below: 4 sequences and their reported polyreactivity (PSR sort gate).
- seqText: "QVQLVESGGGLVQAGGSLSLSCAASGFIITRNAMGWYRQAPGKEWEFVARISRSSGSTYYADSVKGRFTISRDNAKITVYLKMKSLTPDDTAVYYCNTRVAGIYGFGSYDDWGQGTQVTVSS"
  val: "high polyreactivity"
- seqText: "QVQLVESGGGLVQAGGSLRLSCAASGSIFHYNAMGWSRQAPGKERELVAAISRGGSTHYADSVKGRFTISRDNAKNTVYLQMNSLKPEDTAVYYCATVQVVGPWSYRKLDYCGQGTQVTVSS"
  val: "high polyreactivity"
- seqText: "QVQLVESAGGLVQAGGSLRLICAASGSTFTYYPMGWYRQAPGKERELVAAISGSGGRTYYADSVKGLFTISRDNAKNTVYLQMNSLKPEDTAVYYCNARATSLVPGRPKQYTYYYWGQGTQVTVSS"
  val: "high polyreactivity"
- seqText: "QVQLVESGGGLVQAGGSLRLSCAASGSIFYYNAMGWYRQAPGKERELVAAISRSGGSTYYADSVKGRFTISRDNAKNTVYLQMNSLKPEDTAVYYCAARPNFTPYEYGYWGQGTQVTVSS"
  val: "low polyreactivity"

Qu. Record request: polyreactivity (PSR sort gate) value, item QVQLVESGGGLVQAGGSLRLSCAASGSTFYFYAMGWYRQAPGKERELVAAISSSGGSTYYADSVKGRFTISRDNAKNTVYLQMNSLKPEDTAVYYCAADDAIYDSLDYWGQGTQVTVSS
Ans. low polyreactivity

* * *

- test: yeast display, Sf9 membrane polyspecificity reagent, FACS + sequencing; frameworks hold sequencing errors
parameter: polyreactivity (PSR sort gate)

Below: 5 sequences and their reported polyreactivity (PSR sort gate).
- seqText: "QVQLVESGGGLVQAGGSLRLSCAGSGFTLDGYVMGWYRQAPGQEREFVAAIRSSGGSTRYADSVKGRFTISRDNAKNTVYLQMNSLKPEDTALYYSAAVAYYWGYEQWYDYWGQGTQVTVSS"
  polyreactivity (PSR sort gate): "high polyreactivity"
- seqText: "QVQLVESGGGLVQAGGSLRLSCAASGRTFKTYAMGWYRQAPGKERELVAAISASGGRTYYADSVKGRFTISRDNAKNTVYLQMNSLKPEDTAVYYCAALGYILNGGDYWGQGTQVTVSS"
  polyreactivity (PSR sort gate): "high polyreactivity"
- seqText: "QVQLVESGGGLVQAGGSLRLSCAASGRTIRGYTMGWYRQAPGKERELVATITKRGGSTTYADSVKGRFTISRDNAKNTVYLQMNSLKPEDTAVYYCNKDTITSTWTPYTSWFGYWGQGTQVTVSS"
  polyreactivity (PSR sort gate): "high polyreactivity"
- seqText: "QVQLVESGGGLVPAGGSLRLSCAASGSNFYWYVMGWYRQAPGKERELVADIRYSPGRTYYADSVKGRFTISRDNAKNTVYLQMNSLIPEDTAVYYCKARRRLFTVDFDYWGQGTQVTVSS"
  polyreactivity (PSR sort gate): "high polyreactivity"
- seqText: "QVQLVESGGGLVQAGGSLRLSCAASGRIFSTNAMGWYLQAPGKERELVAGINSGGSTNYADSVKGRFTISRDNAKNTVYLQMNSLKPEDTAVYYCNASLPVDSWYVQYGVDYDYWGQVTQVTVSS"
  polyreactivity (PSR sort gate): "low polyreactivity"

Report polyreactivity (PSR sort gate) for every entry below.
1. QVQLVESGGGLVQAGGSLRLICAASGSTFYDNTMGWYRQAPGKERELVAAISSGGGTYYADSVKGRFTISRDNAKNTVYLQMNSLKPEDTSVYYCNADQTAYGKPGRAYGFDYWGQGTQVTVSS
2. QVQLVESGGRLVQAGGSLRLSCAASGRIFRRNAMGWYRQAPGKERELVAAISSSGGRTYYADSVKGRFTISRDNAKNTVYLQMNSLKPEDTAVYYCATRESLEPGYYWGQGTQVTVSS

Ans.
1: low polyreactivity; 2: high polyreactivity

Report polyreactivity (PSR sort gate) for every entry below.
1. QVQLVDSGGGLVQAGGTLSLSCAASGRTFWWYARGWSRQAPGTERELVDAITNFGSTNYADSVKGRFSISRDNAKNTVYLQKNSLKPEDTAVYYCAALTRCWYGGFYQYYYLGQGTQVTVSS
2. QVQLVESGGGLVQAGGSLRLSCAASGITFKYYTMGWYRQAPGKERELVAAISRSGGSTYYADSVKGRFTISRDNAKNTVYLLMNSLKPEDTAVYYCAGERGAYRGVTFTYGYWGQGTQVTVSS
3. QVQLVESGGGLVQAGGSLRLSCAASGSTFYRNAMGWYRQAPGKERELVAAISGSDGSTYYADSVKGRFTISRDNAKNTVYLQMNSLKPEDTAVYYCNARRWWVIRDYWGQGTQVTVSS
4. QVQLVESGGGLVQAGGSLRLSCAASGSTFKIYAMGWYRQAPGKERELVARITGRGGSTYYADSVKGRFTISRDNAKNTVYLQMNSLKPEDTAVYYCAARVYTFYYDLHKRYYWGQGTQVNVSS
5. QVQLVESGGGLVQAGGSLRLSCAASGSIFNTYVMGWYRQAPGKERELVAAITSSGGRTYYADSVKGRFTISRDNAKNTVYLQMNSLKPEDTAVYYCNTAQRWVGRNDYWGQGTQVTVSS
6. QVQLVESGGGLVQAGGSLRYSCAASGSTSAWYAMGWYRQAPGKERELVAAITESGGDTYYADSVKGRFTISRDNAKNTVYLQMNSLKPEDTAVYYCNARGSARKSVPYPLEYWGQGTQVTVSS
7. QVQLVESGGGLVQAGGSLRLSCAASGRIFTYYAMGWYRQAPGKERELVATISSSGSTNYADSVKGRFTISRDNAKNTVYLQMNSLKPEDTAVYYSAKKTRRRYDVKYDYWGQGTQVTVSS
8. QVQLVESGGGLVQAGGSLRLSCAPSGRIFGGYTMGGYRQAHGKVRELVASINSGGSTAYADSVKGRFTISRDNAKNTVYLQMNSLKPEDTAVYYCNAYLVYSYSPSHYYGFGYWGQGTQVTVSS

Ans.
["high polyreactivity", "high polyreactivity", "high polyreactivity", "high polyreactivity", "high polyreactivity", "high polyreactivity", "low polyreactivity", "high polyreactivity"]

Report polyreactivity (PSR sort gate) for every entry below.
1. QVQLVESGGGLVQAGGSLRLSCAASGSIFTFYAMGWYRQAPGKERELVATINRIGGNTYYADSVKGRFTISRDNAKNSVYLLMKSLKPEETAVYYCAVCPYTRPYYRTFDHWGQGTLVTVSS
2. QVQLVESGGGLVQAGGSLRLSCAASGSIFFEYAMGWYRQAPGKERELVASINRGGGSTYYADSVKGRFTISRDNAKNTVYLQMNSLIPEDTAVYYCAAQCKYRQSYLDYYWGQGTQVTVSS
3. QVQLVESGGGLVQAGGSLRLSCAASGSILGDYGMGWYRQAPGKEREVVAAITWNGDSTYYADSVKGRFTISRDNAKNTVYLQMNSLKPEDTAVYYCAADLQDYKYYPWYGYWGQGTQVTVSS
4. QVQLVESGGGLVQAGGSLRLSFAASGSIFRYYVMGWYRQAPGKERELVAAISSGGRTYYADSVKGRFTISRDNAKNTVYLQMNSLKPEDTAVYYCNAQGLFYWEMDYWGQGTQVTVSS
5. QVQLVESGGGLVQAGGSLRLSCAASGTTFDYYAMGWYRQAPGKERELVAVISSSGGSTYYADSVKGRFTISRDNAKNTVYLQMNSLKPEDTAVYYCAALYRNYGSSYAYYYWGQGTQVTVSS
6. QVQLVESGGGLVQAGGSLRLSCADSGRTQWSYAIGWYRQAPGKERELVATISYSGGSTYYADSVKGRFTISRDNAKNTVYLQMNSLKPEATAVYYCNAVARWYVLQVYEYDYWGEGTQVTVSS

Ans.
1: low polyreactivity; 2: low polyreactivity; 3: low polyreactivity; 4: high polyreactivity; 5: low polyreactivity; 6: low polyreactivity

* * *

- test: yeast display, Sf9 membrane polyspecificity reagent, FACS + sequencing; frameworks hold sequencing errors
parameter: polyreactivity (PSR sort gate)

- seqText: "QVQLVESVGGLDQAGGSLRLSCAASGYTFSLNAMGWYRQAPGKEREFVATIRSSGARTSYADSVKGRFTISRDNAKNTVYLQMNSLKPEDTAVYYCAARYYNSYRYAMGYWGQGTQVTVSS"
  polyreactivity (PSR sort gate): "high polyreactivity"
- seqText: "QVQLVETGGGLVQAGGSLRLSCAASGFTFAKYAMGRYRQAPGKERELVAAISSIGGSTYYADSVKGRFTISRDNAKNSVYLQMNSLKPEDSAVYFCAAELYCGYYYWGQGTQVTVYS"
  polyreactivity (PSR sort gate): "high polyreactivity"
- seqText: "QVQRVESGGGLVQAGGSLRLSCAASGRILGKYAMGRYIQAPGKEREVVAAIRLRGGSTYYADSVKGRFTISRDNAKNTVYLQMNSLKPEDTAVYYCAATYWDRSQAYNYWGQGTQVTVSY"
  polyreactivity (PSR sort gate): "high polyreactivity"
- seqText: "QVQLVESGGGLVQAGGSLRLSCAASGRTFNWNAMGWYRQAPGKESEFVADISGRGGSTYYADSVKGRFTISRDNAKNTVYLQMNSLKPEETAVYYCAARPRFLRASVEFDYWGQGTQVTVSS"
  polyreactivity (PSR sort gate): "high polyreactivity"
- seqText: "QVQLVESGGGLVQAGGSLRLSCAASGRIFYGKAMGWYRQAPGKERELVAGITTSGGGTYYADSVKGRFTISRDNAKNTVYLKMNSLKPEDTAVYYCAAKYRRYRDIQDGGYWGQGTQVTVSS"
  polyreactivity (PSR sort gate): "low polyreactivity"
- seqText: "QVQLVESGGGLVQAGGSLRLSCAASGRTFNSYAMGWYRQAPGKERELVASISSGGSTYYADSVKGRFTLSRDNAKHTDYLQMNSLKPEDTAVYYCAAKSVAYYSYFRRDYWGQGTQVTVSS"
  polyreactivity (PSR sort gate): "low polyreactivity"
- seqText: "QVQLVESGGGLVQAGGSLRLSCDASGSTFSYYTMGWYRQAPGKERELVAAITGSGGRTYYADSVKGRFTISRDNAKNTVYLQMNSLKPEDSAVYYCAARLYTAADHYNYWGQGTQVTVSS"
  polyreactivity (PSR sort gate): "high polyreactivity"
- seqText: "QVQLVESGGGLVQAGGSLRLSCAASGSIFFWNDMGWYRQAPGKERELVAAISWSGGSTSYADSVKGRFTISRDNAKNTVYLQMNSLKPEDTAVYYCAAEYTYGSPYDYWGQGTQVTVSS"
  polyreactivity (PSR sort gate): "low polyreactivity"
- seqText: "QVQLVESGGGLVQAGGSLRLSCAASGFTFVTNAMGWYRQAPGKERELVAAISRRGGSTYYADSVKGRFTISRDIAKNTVNLEMNSLKPEDTAVYYCNADRQRRRQFSFSSPYDYWGQGTLVTVSS"
  polyreactivity (PSR sort gate): "high polyreactivity"
- seqText: "QVQLVESGGGLVQAGGSLRLSCAASGSIFGTYAMGWYIQAPGKEREFVAAISWSDGSTYYADSVKGRFTISRDNAKNTVYLQMNSLKPEDTAVYYCAAGPSQYTEFDYWGQGTQVTVSS"
  polyreactivity (PSR sort gate): "low polyreactivity"

Would you kindly look at the next entry?
Qu. Record request: polyreactivity (PSR sort gate) value, item QVQLVESGGGLVQAGGSLRLSCAASGIIFDYNAMGWYRQAPGKERELVAAISSSGGSTYYADSVKGRFTLSRDNAKNTVYLLMTSLKPEDTAVYYCAAAPRFRGYDYWGQGTQVTVSS
Ans. high polyreactivity
